FYI, the data here is from patent US12006328B2.

# Target under test: GluN2D-containing NMDA receptors (Homo sapiens)
# Sequence (O15399 28-1336, other chains not shown): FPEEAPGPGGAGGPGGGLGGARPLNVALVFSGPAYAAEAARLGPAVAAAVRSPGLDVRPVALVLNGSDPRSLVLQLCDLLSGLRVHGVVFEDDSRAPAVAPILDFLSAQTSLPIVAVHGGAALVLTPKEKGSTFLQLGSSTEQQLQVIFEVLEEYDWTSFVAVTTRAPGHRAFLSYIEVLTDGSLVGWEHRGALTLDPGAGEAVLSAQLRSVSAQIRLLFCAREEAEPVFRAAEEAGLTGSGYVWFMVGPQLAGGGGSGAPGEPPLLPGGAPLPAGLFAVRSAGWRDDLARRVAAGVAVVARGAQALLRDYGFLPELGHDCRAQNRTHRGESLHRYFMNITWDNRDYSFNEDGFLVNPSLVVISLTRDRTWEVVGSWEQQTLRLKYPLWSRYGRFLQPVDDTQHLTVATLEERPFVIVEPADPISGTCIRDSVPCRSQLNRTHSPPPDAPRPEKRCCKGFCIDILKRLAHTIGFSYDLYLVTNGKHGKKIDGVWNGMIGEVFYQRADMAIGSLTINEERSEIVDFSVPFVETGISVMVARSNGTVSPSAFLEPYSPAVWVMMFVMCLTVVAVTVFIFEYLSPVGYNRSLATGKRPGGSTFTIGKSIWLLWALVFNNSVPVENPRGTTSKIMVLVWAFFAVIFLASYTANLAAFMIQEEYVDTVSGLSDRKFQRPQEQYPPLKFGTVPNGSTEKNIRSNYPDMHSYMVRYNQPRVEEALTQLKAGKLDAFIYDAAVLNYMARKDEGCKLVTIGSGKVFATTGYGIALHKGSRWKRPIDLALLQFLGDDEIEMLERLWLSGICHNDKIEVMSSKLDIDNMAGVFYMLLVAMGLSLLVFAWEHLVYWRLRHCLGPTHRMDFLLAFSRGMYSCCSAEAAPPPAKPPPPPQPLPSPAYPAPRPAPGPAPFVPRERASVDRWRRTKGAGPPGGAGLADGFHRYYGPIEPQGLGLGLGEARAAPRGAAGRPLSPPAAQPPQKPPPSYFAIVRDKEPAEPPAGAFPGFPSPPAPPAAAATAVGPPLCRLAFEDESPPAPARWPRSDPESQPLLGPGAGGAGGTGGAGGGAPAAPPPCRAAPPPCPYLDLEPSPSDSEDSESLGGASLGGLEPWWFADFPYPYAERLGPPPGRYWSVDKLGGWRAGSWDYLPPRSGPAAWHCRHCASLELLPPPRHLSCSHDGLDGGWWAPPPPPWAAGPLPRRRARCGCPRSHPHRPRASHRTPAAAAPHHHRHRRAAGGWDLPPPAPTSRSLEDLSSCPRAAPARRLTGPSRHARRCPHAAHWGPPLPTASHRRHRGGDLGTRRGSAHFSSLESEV
# Assay details: Two-electrode voltage-clamp recordings from Xenopus laevis oocytes, GluN2D
# Condition label: Table 1; glutamate 100 μM, glycine 30 μM; Hill fit; read-out: EC50 Glu N2D
Property: EC50 (µM)
Report as a plain number; the unit µM is understood.

Ask | Name the recorded EC50 for Cc1sc2ncn(CC(=O)N3CCCC3)c(=O)c2c1-c1ccc(Br)cc1 .
Reply | 79

Ask | Name the recorded EC50 for Cc1sc2ncn(CC(=O)N3CCCC3)c(=O)c2c1-c1cccc([N+](=O)[O-])c1 .
Reply | 60

Ask | Name the recorded EC50 for Cc1sc2ncn(CC(=O)N3CCCC3)c(=O)c2c1-c1cccc(C(F)(F)F)c1 .
Reply | 25

Ask | Name the recorded EC50 for O=C(Cn1cnc2scc(-c3ccc(Cl)cc3)c2c1=O)N1CCCC1 .
Reply | 72

Ask | Name the recorded EC50 for Cc1sc2ncn(CC(=O)N3CCCC3)c(=O)c2c1-c1cccc(I)c1 .
Reply | 15

Ask | Name the recorded EC50 for Cc1sc2ncn(CC(=O)N3CCCC3)c(=O)c2c1-c1cccc(-n2ccnc2)c1 .
Reply | 80

Ask | Name the recorded EC50 for Cc1sc2ncn(CC(=O)N3CCCC3)c(=O)c2c1-c1ccc(OCc2ccccc2)cc1 .
Reply | 25

Ask | Name the recorded EC50 for Cc1sc2ncn(CC(=O)N3CCCC3)c(=O)c2c1-c1cccc(N=[N+]=[N-])c1 .
Reply | 10
